Test system: HCT-116
Experiment: NCI human tumor cell panel
Assay type: cell-based
Conditions: HCT-116, read-out: Log10 LC50 (converted)
Description: Considering the diversity of tumors in terms of cell type, morphology, growth rate and other cellular characteristics, the U.S. National Cancer Institute (NCI) has developed a "disease-oriented" approach to antitumor activity screening (M.R. Boyd, in "Principle of Practice of Oncology" J.T. Devita, S. Hellman, S.A. Rosenberg (Eds.) Vol. 3, PPO Update, No. 10, 1989). […] The cytotoxic activity of the present selenophene compounds have been measured utilizing two different assays or screens. […]
Observable: CC50

Substance smiles: O=Cc1ccc(-c2ccc(-c3ccc(C=O)[se]3)s2)s1
Assayed system: HCT-116
CC50: > 100 µM
//
Substance smiles: O=Cc1ccc(-c2ccc(-c3ccc[se]3)[se]2)[se]1
Assayed system: HCT-116
CC50: 38.9 µM
//
Substance smiles: OCc1ccc(-c2ccc(-c3cccs3)[se]2)s1
Assayed system: HCT-116
CC50: 2.95 µM
//
Substance smiles: OCc1ccc(-c2ccc(-c3ccc(CO)[se]3)s2)s1
Assayed system: HCT-116
CC50: 81.3 µM
//
Substance smiles: OCc1ccc(-c2ccc(-c3ccc(CO)[se]3)s2)[se]1
Assayed system: HCT-116
CC50: > 100 µM

Data request: Missing value: CC50, HCT-116, entry `OCc1ccc(-c2ccc(-c3ccc(CO)[se]3)[se]2)[se]1` . Fill in?
Data returned: > 100 µM

Data request: Missing value: CC50, HCT-116, entry `OCc1ccc(-c2ccc(-c3ccc[se]3)[se]2)[se]1` . Fill in?
Data returned: 32.4 µM

Data request: Missing value: CC50, HCT-116, entry `OCc1ccc(-c2ccc(-c3ccc[se]3)s2)[se]1` . Fill in?
Data returned: > 100 µM

Data request: Missing value: CC50, HCT-116, entry `O=Cc1ccc(-c2ccc(-c3ccc(C=O)[se]3)s2)[se]1` . Fill in?
Data returned: > 100 µM

Data request: Missing value: CC50, HCT-116, entry `O=Cc1ccc(-c2ccc(-c3ccc(C=O)[se]3)[se]2)[se]1` . Fill in?
Data returned: > 100 µM

Data request: Missing value: CC50, HCT-116, entry `O=Cc1ccc(-c2ccc(-c3cccs3)[se]2)s1` . Fill in?
Data returned: > 100 µM

Data request: Missing value: CC50, HCT-116, entry `O=Cc1ccc(-c2ccc(-c3ccc(C=O)s3)[se]2)s1` . Fill in?
Data returned: > 100 µM

Data request: Missing value: CC50, HCT-116, entry `OCc1ccc(-c2ccc(-c3ccc(CO)s3)[se]2)s1` . Fill in?
Data returned: > 100 µM

---

Tested on: NCI-H23
Assay: NCI human tumor cell panel
Settings: NCI-H23, read-out: Log10 LC50 (converted)
# reported CC50; entries follow

Sample records with CC50:
Substance smiles: OCc1ccc(-c2ccc(-c3ccc(CO)[se]3)s2)[se]1
CC50: > 100 µM

Substance smiles: OCc1ccc(-c2ccc(-c3cccs3)[se]2)s1
CC50: > 100 µM

Substance smiles: OCc1ccc(-c2ccc(-c3ccc(CO)[se]3)s2)s1
CC50: > 100 µM

Substance smiles: O=Cc1ccc(-c2ccc(-c3ccc(C=O)[se]3)[se]2)[se]1
CC50: > 100 µM

Substance smiles: OCc1ccc(-c2ccc(-c3ccc[se]3)s2)[se]1
CC50: 91.2 µM

Data request: // query CC50 value for entry `O=Cc1ccc(-c2ccc(-c3ccc(C=O)[se]3)s2)[se]1`
Data returned: > 100 µM

Data request: // query CC50 value for entry `OCc1ccc(-c2ccc(-c3ccc[se]3)[se]2)[se]1`
Data returned: 70.8 µM
